Source listed as PubChem BioAssay (NCI).

- test-name: NCI Yeast Anticancer Drug Screen. Data for the CLN2oe strain (AID 163);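 note: 0% = growth of vehicle-only control cultures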
- run-parameters: S. cerevisiae CLN2oe strain, at 100.0 µM
About 79,000 compounds went through this panel and 15% of them were active in at least one assay; those are over-represented in the sample as a whole. Active and inactive are the calls of the source. Cut-off read from the data, not from the text of the source: active = growth inhibition above about 70%; inactive = the rest.
Allowed answers: 1 for active, 0 for inactive

Task item: Kindly provide the recorded test outcome for the following compound: CCCCCCCCCCCCCC[N+](C)(CC(=O)[O-])Cc1ccccc1 (configuration not stated)
Reply: 1

Task item: Request: `CC(C)(C)c1nc2c(o1)C(=O)c1ccccc1C2=O`
Reply: 1

Task item: What would you report for `CCCc1cc(C(=O)OCC)cc(CCC)c1O` ?
Reply: 1

Task item: Same lookup for `CSc1nc(=S)[nH]c2c1c(C)nn2-c1ccccc1` , please.
Reply: 0

Task item: Queued: CC1C(NNc2ccccc2)Oc2cc3c(cc2C1c1ccccc1O)OCO3 (configuration not stated)
Reply: 1

Task item: Check `NC(=O)NN=C(CS)CS` too.
Reply: 0

Task item: What do you get for `COc1ccc(Br)c(C(=O)Sc2nnnn2-c2cccc(Cl)c2)c1` ?
Reply: 1

Task item: For `O=S(=O)(CCCl)c1ccccc1Cl` then?
Reply: 1

Task item: Entry `CCOC(=O)c1cnc2cc(C(F)(F)F)ccc2c1N=[N+]=[N-]` please
Reply: 1

Task item: Please do the same for `COc1ccc(NC(=S)N/N=C(\c2ccccc2)c2ccccn2)cc1` as well.
Reply: 1

Task item: Could you do the same for `CN(C)c1nc2sc3c(c2c(=O)o1)CCCC3` , please?
Reply: 0

Task item: Same thing, different compound: CN1CCc2ccccc2C1Cc1ccccc1NC(=O)c1sc2ccccc2c1Cl (configuration not stated)
Reply: 1
